run_description: NCI Yeast Anticancer Drug Screen. Data for the rad50 strain (AID 155);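 also: 0% = growth of vehicle-only cultures of the same strain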
measurement_setup: S. cerevisiae rad50 strain growth inhibition; at 5.0 µM (retest, dose inferred, filed as 0.5)
This is part of a sample that, as a whole, favours compounds with a hit. Of some 79,000 tested, about 15% had one in any assay. Calls of active or inactive are those of the source. Rule as the data show it: active = growth inhibition above about 70%; inactive = the rest.
Pick from true (1) (active), false (0) (inactive) when you respond.

INPUT: Please indicate how the test categorized C/C(=N\NC(=S)N/N=C(\C)c1ccccn1)c1ccccn1 .
OUTPUT: true (1)

INPUT: Please indicate how the test categorized NNc1cccc(C(F)(F)F)c1 .
OUTPUT: false (0)

INPUT: Please indicate how the test categorized C/C(=N/NC(=O)C[n+]1ccccc1)C(CN(CC(C)C)CC(C)C)C(=O)Nc1ccc(C)cc1C (stereo unspecified) .
OUTPUT: false (0)

INPUT: Please indicate how the test categorized COc1cc(Br)c(CC(NC=O)c2ccc3c(c2)OCO3)cc1OC (stereo unspecified) .
OUTPUT: false (0)

INPUT: Please indicate how the test categorized O=c1ncccn1[C@@H]1O[C@H](CO)[C@H](O)C1O (stereo partly specified) .
OUTPUT: false (0)

INPUT: Please indicate how the test categorized O=c1[nH]cnc2c1ncn2CCc1ccccc1 .
OUTPUT: false (0)

INPUT: Please indicate how the test categorized c1ccc2c(CCc3ccncc3)cccc2c1 .
OUTPUT: false (0)

INPUT: Please indicate how the test categorized C[N+](C)(C)CC(=O)N/N=C(\C(=O)NC1=C(Cl)C(=O)c2ccccc2C1=O)C(C#N)c1nc(-c2ccc([N+](=O)[O-])cc2)cs1 (stereo unspecified) .
OUTPUT: false (0)

INPUT: Please indicate how the test categorized Clc1cc2ccccc2c2ccccc12 .
OUTPUT: false (0)

INPUT: Please indicate how the test categorized Nc1c(Cl)nc(C(F)(F)F)nc1NCc1ccccc1 .
OUTPUT: false (0)

INPUT: Please indicate how the test categorized CCCCc1ccc2nc(C)cc(N=[N+]=[N-])c2c1 .
OUTPUT: false (0)

====

run_description: NCI Yeast Anticancer Drug Screen. Data for the bub3 strain (AID 167)
measurement_setup: S. cerevisiae bub3 mutant strain, at 50.0 µM
Compounds without any hit were thinned out: in the full panel of roughly 79,000, 15% have a hit. Active and inactive are the calls of the source. No stated cut-off is given here; in the data, active means growth inhibition above about 70%; inactive means the rest.
Pick from True (active), False (inactive) when you respond.

INPUT: Please indicate how the test categorized Oc1ccc(C2Oc3ccccc3C=C2c2ccccc2)cc1 (stereo not given) .
OUTPUT: False

INPUT: Please indicate how the test categorized O=C1C2=C(CCCC2)C(=O)c2ccccc21 .
OUTPUT: False

INPUT: Please indicate how the test categorized CCCCCCCCCCCCCCCCCC(=O)Nc1ccn(C2OC(CO)C(O)C2O)c(=O)n1 (stereo not given) .
OUTPUT: True

INPUT: Please indicate how the test categorized O=C1c2c(Br)sc(Br)c2[C@@H](NC(=O)C(F)(F)F)C1Br (stereo not given in full) .
OUTPUT: True

INPUT: Please indicate how the test categorized Cc1ccc(-c2c3nc(c(-c4ccc(C)cc4)c4ccc([nH]4)c(-c4ccc(C)cc4)c4nc(c(-c5ccncc5)c5ccc2[nH]5)C=C4)C=C3)cc1.Cc1ccc(-c2c3nc(c(-c4ccc(C)cc4)c4ccc([nH]4)c(-c4ccc(C)cc4)c4nc(c(-c5ccncc5)c5ccc2[nH]5)C=C4)C=C3)cc1.O=S(=O)([O-])C(F)(F)F.[Pt+2].c1ccc([PH+](CCC[PH+](c2ccccc2)c2ccccc2)c2ccccc2)cc1 .
OUTPUT: False

INPUT: Please indicate how the test categorized O=C1OC(CC(=O)c2ccc(Cl)cc2Cl)C(Cl)=C1Cl (stereo not given) .
OUTPUT: False

INPUT: Please indicate how the test categorized COc1ccc(C2=Nc3cc(C)c(C)cc3NC(c3ccccc3)C2)cc1 (stereo not given) .
OUTPUT: True

INPUT: Please indicate how the test categorized NC(c1ccccc1)P(=O)(OCc1ccc([N+](=O)[O-])cc1)OCc1ccc([N+](=O)[O-])cc1 (stereo not given) .
OUTPUT: False

INPUT: Please indicate how the test categorized Cc1ccc(SC2=C(N(C)C)C(=O)c3ccccc3C2=O)cc1 .
OUTPUT: True

INPUT: Please indicate how the test categorized CCCCCCCCC(=O)Cl .
OUTPUT: False

INPUT: Please indicate how the test categorized CCOC(=O)CC(O)(CCc1ccccc1)c1ccccc1 (stereo not given) .
OUTPUT: False

INPUT: Please indicate how the test categorized Cn1c(=O)ccc2cc(C(=O)c3ccccc3)ccc21 .
OUTPUT: False

INPUT: Please indicate how the test categorized N=c1n(CC(=O)NC23CC4CC(CC(C4)C2)C3)c2ccccc2n1CC(=O)NC12CC3CC(CC(C3)C1)C2 .
OUTPUT: False

INPUT: Please indicate how the test categorized O=C(O)/C=C/c1ccc2c(c1)CC1(Cc3ccccc3C1)C2 .
OUTPUT: True

INPUT: Please indicate how the test categorized Cn1ncc2c(Nc3ccccc3)nc(Nc3ccccc3)nc21 .
OUTPUT: True

INPUT: Please indicate how the test categorized Cc1cc(=O)n(-c2cc3cccccc-3n2)[nH]1 .
OUTPUT: True

INPUT: Please indicate how the test categorized CN1CC(CN2CCCCC2)C(O)C(c2ccccc2)C1 (stereo not given) .
OUTPUT: False

INPUT: Please indicate how the test categorized CC(/C=C1\C(=O)N(C)C(CC(C)C(Cl)(Cl)Cl)C(=O)N1C)C(Cl)(Cl)Cl (stereo not given) .
OUTPUT: False

INPUT: Please indicate how the test categorized OC(CCl)c1ccc2ccc3c(c2c1)Nc1ccccc1S3 (stereo not given) .
OUTPUT: True

INPUT: Please indicate how the test categorized O=[N+]([O-])c1ccc2c(c1)Cc1cc(Cl)ccc1-2 .
OUTPUT: False

====

run_description: NCI Yeast Anticancer Drug Screen. Data for the cln2 rad14 strain (AID 165);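 also: 0% = growth equal to vehicle treated cultures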
measurement_setup: S. cerevisiae cln2 rad14 strain, at 5.0 µM (retest, dose inferred, filed as 0.5), active compounds read high
Compounds without any hit were thinned out: in the full panel of roughly 79,000, 15% have a hit.
result_type: growth inhibition (%)
Dear colleague, please return just the value in %, with no unit written.

INPUT: Requested field: growth inhibition. Item: OCCN=C1c2ccccc2C2C(c3ccccc31)C1c3ccccc3C(=NCCO)c3ccccc3C21 (stereo unspecified)
OUTPUT: 4

INPUT: Requested field: growth inhibition. Item: COc1ccc(NC2Oc3cc4c(cc3C(c3cccc(OC)c3OC)C2C)OCO4)cc1 (stereo unspecified)
OUTPUT: -10

INPUT: Requested field: growth inhibition. Item: OC(COc1ccc(Cl)cc1)CN1CCN(c2cccc(Cl)c2)CC1 (stereo unspecified)
OUTPUT: 20

INPUT: Requested field: growth inhibition. Item: COc1cc(/C=C\C(=O)c2cccc(O)c(=O)c2)cc(OC)c1OC
OUTPUT: -15

INPUT: Requested field: growth inhibition. Item: CN1C/C(=C\c2ccc(Cl)cc2)C(=O)/C(=C/c2ccc(Cl)cc2)C1
OUTPUT: 78

INPUT: Requested field: growth inhibition. Item: CCCCCCCCCCCCCCN1CCSCC1
OUTPUT: 5

INPUT: Requested field: growth inhibition. Item: CC1=C(C(=O)OCCO[N+](=O)[O-])C(c2ccccc2[N+](=O)[O-])C(C(=O)OC(C)C)=C(C)N1 (stereo unspecified)
OUTPUT: 10

INPUT: Requested field: growth inhibition. Item: O=C1C=CC(=O)C(c2ccc(Cl)cc2)=C1
OUTPUT: 40

INPUT: Requested field: growth inhibition. Item: O=C(Nc1cccc(Cl)c1)OCCOC(=O)Nc1cccc(Cl)c1
OUTPUT: 2

INPUT: Requested field: growth inhibition. Item: CC(C)(C)[Si](C)(C)OCC1OC(n2cnc3c(NC(=O)c4ccccc4)ncnc32)CC1O (stereo unspecified)
OUTPUT: -1

INPUT: Requested field: growth inhibition. Item: Cc1cc2c(Br)cc(Br)c(O)c2nc1C(=O)c1ccccc1
OUTPUT: 33

INPUT: Requested field: growth inhibition. Item: COC1=C2C[C@@H](C)C[C@@H](OC)[C@@H](O)[C@H](C)/C=C(\C)[C@@H](OC(N)=O)[C@H](OC)/C=C\C=C(/C)C(=O)NC(=CC1=O)C2=O
OUTPUT: 56

INPUT: Requested field: growth inhibition. Item: O=[N+]([O-])c1ccc(N2CCCC(n3cccc3)C2)c([N+](=O)[O-])c1 (stereo unspecified)
OUTPUT: 12

INPUT: Requested field: growth inhibition. Item: O=C(CCN1CCOCC1)c1ccc(Oc2ccc(F)cc2)cc1
OUTPUT: 64

INPUT: Requested field: growth inhibition. Item: O=C(N/C(=C\c1ccc([N+](=O)[O-])cc1)c1nc2ccccc2s1)c1ccccc1
OUTPUT: -2

INPUT: Requested field: growth inhibition. Item: CCc1ccc(C(=O)O)c2ccccc12
OUTPUT: 8

INPUT: Requested field: growth inhibition. Item: O=C1Oc2ccccc2C(=O)/C1=C/N1C(=O)/C(=C/c2ccc3c(c2)OCO3)SC1=S
OUTPUT: -13

INPUT: Requested field: growth inhibition. Item: COc1ccc2[nH]cc(C(=O)O)c2c1
OUTPUT: 0

INPUT: Requested field: growth inhibition. Item: NC(=S)N/N=C1\NC(=O)/C(=C/c2ccc3c(c2)OCO3)S1
OUTPUT: 16

INPUT: Requested field: growth inhibition. Item: CN1C(=O)C23SSC1(C)C(=O)N2c1ccccc1C3(C)C (stereo unspecified)
OUTPUT: 98

INPUT: Requested field: growth inhibition. Item: Cn1c(=O)c2c(nc([N+](=O)[O-])n2C)n(C)c1=O
OUTPUT: -2
